Attribute: viability at 24 h, 2.5 µM
# protocol-summary: Toxicity in human U2OS cells assessed as cell viability at 2.5 umol/L incubated for 24 hrs by MTT assay relative to control
# Assay type: cell-based
# run-conditions: dose 2.5 µmol/L, read-out: Activity

| compound | viability at 24 h, 2.5 µM |
| --- | --- |
| COc1cc(C2Oc3ccc([C@H]4Oc5cc(O)cc(O)c5C(=O)[C@@H]4O)cc3OC2CO)ccc1O (stereo partly drawn) | > 90% |
| O=c1c2cc(O)c(O)cc2oc2cc(O)c([C@@H]3O[C@H](CO)[C@@H](O)[C@H](O)[C@H]3O)c(O)c12 | > 90% |
| O=C(/C=C/c1ccc(O)cc1)c1ccc(O)cc1O | > 90% |
